Origin of the recorded values: the supplement of paper PMC6897291

- System: RIVA
- method: growth inhibition by drug alone (1 - RLU/untreated control) (fraction); higher = stronger inhibition
- test-conditions: 10 nM; time (day): 6; 177Lu-lilotomab satetraxetan 0 ug/ml
endpoint-label: growth inhibition by drug alone
Field format: numeric only.

Short answer on RIVA for COc1cc2ncnc(-n3nc(-c4ccccn4)nc3N)c2cc1OC , growth inhibition by drug alone: -0.18

Lab entry: RIVA assay, compound Cc1nc(N)sc1-c1ccnc(Nc2ccc(N3CCOCC3)cc2)n1 , growth inhibition by drug alone = -0.327

The value of growth inhibition by drug alone recorded for COc1cc(C(=O)NC(=S)Nc2cccc(NC(=O)c3ccccc3)c2)cc(OC)c1OC when tested on RIVA reads -0.153

Param item: CO[C@@H](C(=O)N1Cc2[nH]nc(NC(=O)c3ccc(N4CCN(C)CC4)cc3)c2C1)c1ccccc1 ; param system: RIVA; output growth inhibition by drug alone: -0.234

Test item O=C1c2ccccc2C(=O)c2c(NCCc3ccc(O)cc3)ccc(NCCc3ccc(O)cc3)c21 ; RIVA; reported growth inhibition by drug alone was -0.808

Param item: CNC(=O)c1cc(Oc2ccc(NC(=O)Nc3ccc(Cl)c(C(F)(F)F)c3)cc2)ccn1 ; param system: RIVA; output growth inhibition by drug alone: -0.269

With RIVA as the test system, O=C(Nc1cccc(Cl)c1)Nc1ncc(CCNc2ncnc3ccsc23)s1 showed growth inhibition by drug alone of 0.331

# lookup: COc1cc2/c(=N/c3ccc(Br)cc3F)nc[nH]c2cc1OCC1CCN(C)CC1 [Vandetanib (Zactima)] on RIVA, growth inhibition by drug alone = -0.529

Log: RIVA, compound CC(C)(C#N)c1cc(Cn2cncn2)cc(C(C)(C)C#N)c1 , growth inhibition by drug alone = -0.213
